Target: Human CB1 receptor (Homo sapiens)
Construct: purchased Receptor Biology
Sequence (P21554 whole entry): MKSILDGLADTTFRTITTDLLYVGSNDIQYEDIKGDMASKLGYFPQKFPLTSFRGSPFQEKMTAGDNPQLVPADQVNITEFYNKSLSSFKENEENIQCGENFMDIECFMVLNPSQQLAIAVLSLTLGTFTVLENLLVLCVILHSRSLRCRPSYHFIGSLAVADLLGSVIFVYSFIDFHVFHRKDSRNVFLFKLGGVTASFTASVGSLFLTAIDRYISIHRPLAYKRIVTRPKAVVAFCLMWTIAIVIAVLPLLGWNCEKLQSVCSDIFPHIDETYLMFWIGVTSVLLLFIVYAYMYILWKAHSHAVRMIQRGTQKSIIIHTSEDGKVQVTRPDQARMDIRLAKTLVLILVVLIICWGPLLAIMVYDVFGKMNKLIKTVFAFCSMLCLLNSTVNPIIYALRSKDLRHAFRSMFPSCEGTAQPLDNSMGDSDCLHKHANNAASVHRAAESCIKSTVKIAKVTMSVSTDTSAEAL
Assay: hCB1 GTPγS binding
Type: biochemical
Details: maximal stimulated binding determined with 10 μM Win 55,212-2
QUANTITY: Emax (%)

> print(dat)
                                    molecule  experimental.value
 1  CC(C)(C)c1nc2cc(S(=O)(=O)N3CCC[C@H](C(=O)NC4CC4)C3)ccc2n1CC1CCC(F)(F)CC1                 136
 2  CNC(=O)c1cnn(S(=O)(=O)c2ccc3c(c2)nc(C(C)(C)C)n3CC2CCC(F)(F)CC2)c1                 118
 3  CC(C)(C)c1nc2cc(S(=O)(=O)N3CCOC(C(=O)NC4CC4)C3)ccc2n1CC1CCC(F)(F)CC1 (centres unmarked)                 120
 4  CC(C)NC(=O)c1cnn(S(=O)(=O)c2ccc3c(c2)nc(C(C)(C)C)n3CC2CCC(F)(F)CC2)c1                 125
 5  CC(F)(F)c1nc2cc(S(=O)(=O)n3ccc(C(=O)NC4CC4)c3)ccc2n1CC1CCOCC1                 119
 6  CC(C)(C)c1nc2cc(S(=O)(=O)n3cc(C(=O)NC4CC4)cn3)ccc2n1CC1CCC(F)(F)CC1                 122
 7  CCNC(=O)[C@@H]1CN(S(=O)(=O)c2ccc3c(c2)nc(C(C)(C)C)n3CC2CCC(F)(F)CC2)CCO1                 156
 8  CCNC(=O)c1cnn(S(=O)(=O)c2ccc3c(c2)nc(C(C)(C)C)n3CC2CCOCC2)c1                 127
 9  CC(C)(C)c1nc2cc(S(=O)(=O)n3ccc(C(=O)NC4CC4)c3)ccc2n1CC1CCOCC1                 142
10  CCNC(=O)c1ccn(S(=O)(=O)c2ccc3c(c2)nc(C(C)(C)C)n3CC2CCOCC2)c1                 138
11  CCCNC(=O)[C@H]1CCCN(S(=O)(=O)c2ccc3c(c2)nc(C(C)(C)C)n3CC2CCC(F)(F)CC2)C1                 134
